Some compounds, each annotated with its measured EC50.
targetEntity: OPRM1 (MOR) in PathHunter CHO-K1 OPRM1 β-Arrestin Cell Line (Homo sapiens, UniProt P35372)
Sequence (P35372 whole entry): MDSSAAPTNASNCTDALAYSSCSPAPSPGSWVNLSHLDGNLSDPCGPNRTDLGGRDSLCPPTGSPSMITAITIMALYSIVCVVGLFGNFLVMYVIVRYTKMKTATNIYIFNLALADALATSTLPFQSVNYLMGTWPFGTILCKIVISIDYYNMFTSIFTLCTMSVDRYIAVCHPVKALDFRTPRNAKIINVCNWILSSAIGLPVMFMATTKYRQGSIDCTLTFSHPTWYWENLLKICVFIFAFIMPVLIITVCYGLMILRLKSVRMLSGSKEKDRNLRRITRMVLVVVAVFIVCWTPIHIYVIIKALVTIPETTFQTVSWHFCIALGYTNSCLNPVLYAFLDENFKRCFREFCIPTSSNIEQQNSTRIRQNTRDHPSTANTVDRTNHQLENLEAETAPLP
testDescription: HTRF-cAMP cell assay
Description: The cell line used in the following tests was PathHunter® CHO-K1 OPRM1 β-Arrestin Cell Line; origin: DiscoverX, No: 93-0213 C2; lot: 13K0402. […] 1. […] Cells were counted and resuspended in 2×/1 mM IBMX stimulation buffer to a cell density of 1.2*10^6/ml. […] g. The plate was read by HTRF. After 60 minutes of incubation, for all samples, reading plates were detected by homogeneous time-resolved fluorescence method. […]
Form field: result (number plus unit)

CC(C)C1CCC(NCC[C@@]2(c3ccccn3)CCOC3(CCCC3)C2)c2ccnn21 (some centres unmarked) [Comparative compound D1] : 19 nM

Data request: Request the reported EC50 associated with CC(C)[C@@H]1C[C@H](NCC[C@@]2(c3ccccn3)CCOC3(CCCC3)C2)c2ccnn21 [Compound of formula X]
Data returned: 6 nM
